Molecular target: Vascular endothelial growth factor receptor 2 (Homo sapiens)
Sequence (P35968 whole entry): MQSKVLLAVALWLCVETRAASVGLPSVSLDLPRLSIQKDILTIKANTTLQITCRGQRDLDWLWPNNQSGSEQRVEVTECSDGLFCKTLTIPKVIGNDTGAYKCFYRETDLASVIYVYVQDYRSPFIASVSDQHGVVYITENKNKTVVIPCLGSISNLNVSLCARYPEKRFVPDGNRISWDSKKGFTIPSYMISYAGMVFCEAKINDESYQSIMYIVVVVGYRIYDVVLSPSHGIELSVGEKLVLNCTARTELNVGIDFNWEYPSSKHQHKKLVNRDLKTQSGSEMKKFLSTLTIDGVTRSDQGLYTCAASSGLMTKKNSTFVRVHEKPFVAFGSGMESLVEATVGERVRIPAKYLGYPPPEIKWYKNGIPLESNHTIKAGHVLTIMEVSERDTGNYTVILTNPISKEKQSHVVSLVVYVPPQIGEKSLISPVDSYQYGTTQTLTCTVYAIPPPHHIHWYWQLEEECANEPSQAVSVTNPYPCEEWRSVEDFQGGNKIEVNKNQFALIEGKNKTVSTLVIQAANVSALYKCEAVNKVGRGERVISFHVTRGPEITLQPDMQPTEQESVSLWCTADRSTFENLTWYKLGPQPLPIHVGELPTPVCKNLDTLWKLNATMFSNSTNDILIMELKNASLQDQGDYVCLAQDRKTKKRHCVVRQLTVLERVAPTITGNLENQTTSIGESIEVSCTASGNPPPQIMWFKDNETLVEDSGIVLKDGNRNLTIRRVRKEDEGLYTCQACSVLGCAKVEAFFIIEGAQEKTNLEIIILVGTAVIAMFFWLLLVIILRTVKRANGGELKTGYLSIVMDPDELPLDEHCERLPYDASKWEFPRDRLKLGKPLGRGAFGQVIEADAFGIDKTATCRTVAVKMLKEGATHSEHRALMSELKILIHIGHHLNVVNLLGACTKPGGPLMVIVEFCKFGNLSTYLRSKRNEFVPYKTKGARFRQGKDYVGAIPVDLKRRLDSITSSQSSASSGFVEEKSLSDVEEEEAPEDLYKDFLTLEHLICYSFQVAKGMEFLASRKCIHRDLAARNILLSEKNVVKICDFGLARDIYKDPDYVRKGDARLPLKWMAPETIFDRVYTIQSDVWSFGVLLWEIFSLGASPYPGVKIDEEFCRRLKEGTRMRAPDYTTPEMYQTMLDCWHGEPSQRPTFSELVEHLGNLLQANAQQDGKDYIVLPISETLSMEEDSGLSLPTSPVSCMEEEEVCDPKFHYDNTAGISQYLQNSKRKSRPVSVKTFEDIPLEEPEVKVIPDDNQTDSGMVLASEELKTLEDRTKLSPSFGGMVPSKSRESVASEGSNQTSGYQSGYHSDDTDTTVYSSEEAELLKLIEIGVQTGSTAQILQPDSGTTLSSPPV
readout: IC50 (nM)
Hi! Could you send only the number? It should be in nM, unit omitted.

Item: `O=C(c1cccnc1)N1CCc2nc(Nc3ccsc3)ncc2C1` | System: Vascular endothelial growth factor receptor 2 (Homo sapiens) | IC50: 11

This collection of values is drawn from ChEMBL document CHEMBL3886609.
